protocol-details: Oral bioavailability in rat
Assay type: ADME, organism-based
run-parameters: in vivo
measure: bioavailability

mol	bioavailability
O=C(Nc1ccc(Cl)cc1C(=O)Nc1ccc(Cl)cn1)c1ccc(-c2ccccc2N2CCC(O)CC2)cc1	32%

Exercise: Return reported bioavailability; argument: N=C(N)c1cccc(-c2ccc(C(=O)Nc3ccc(Cl)cc3C(=O)Nc3ccc(Cl)cn3)cc2)c1
Solution: < 1%

Exercise: Returns the measured bioavailability for the input compound. Input: NC(N)=NCc1ccccc1-c1ccc(C(=O)Nc2ccc(Cl)cc2C(=O)Nc2ccc(Cl)cn2)cc1
Solution: < 1%

Exercise: What does the record list as bioavailability for CC(N)=NCc1ccccc1-c1ccc(C(=O)Nc2ccc(Cl)cc2C(=O)Nc2ccc(Cl)cn2)cc1 ?
Solution: < 1%

Exercise: Could you share which bioavailability value was measured for N=C(N)NCc1cccc(-c2ccc(C(=O)Nc3ccc(Cl)cc3C(=O)Nc3ccc(Cl)cn3)cc2)c1 ?
Solution: < 1%

Exercise: I have this compound here, CN(C)c1ccccc1-c1ccc(C(=O)Nc2ccc(Cl)cc2C(=O)Nc2ccc(Cl)cn2)cc1 , and I need its recorded bioavailability.
Solution: 100%

* * *

pKi: −log10 of the molar value.
Recorded pKi values (Coagulation factor X (Homo sapiens)) are given below.
measure: pKi

Answered cases to consult:
mol	pKi
O=C(Nc1ccc(Cl)cc1C(=O)Nc1ccc(Cl)cn1)c1ccc(-c2ccccc2N2CCC(C(=O)O)CC2)cc1	10.92
CN1CCN(c2ccccc2-c2ccc(C(=O)Nc3ccc(Cl)cc3C(=O)Nc3ccc(Cl)cn3)cc2)CC1	9.05
N=C(N)c1cccc(-c2ccc(C(=O)Nc3ccc(Cl)cc3C(=O)Nc3ccc(Cl)cn3)cc2)c1	9.15
CN(C)c1ccccc1-c1ccc(C(=O)Nc2ccc(Cl)cc2C(=O)Nc2ccc(Cl)cn2)cc1	10.00
O=C(Nc1ccc(Cl)cc1C(=O)Nc1ccc(Cl)cn1)c1ccc(-c2ccccc2N2CCC(O)CC2)cc1	9.70
CN(C)C(=N)c1ccccc1-c1ccc(C(=O)Nc2ccc(Cl)cc2C(=O)Nc2ccc(Cl)cn2)cc1	10.00
CN(C)C(=N)c1cccc(-c2ccc(C(=O)Nc3ccc(Cl)cc3C(=O)Nc3ccc(Cl)cn3)cc2)c1	9.00
O=C(Nc1ccc(Cl)cc1C(=O)Nc1ccc(Cl)cn1)c1ccc(-c2ccccc2N2CCNCC2)cc1	9.00

[1] CN1CCCN(c2ccccc2-c2ccc(C(=O)Nc3ccc(Cl)cc3C(=O)Nc3ccc(Cl)cn3)cc2)CC1
[2] O=C(Nc1ccc(Cl)cc1C(=O)Nc1ccc(Cl)cn1)c1ccc(-c2ccccc2N2CCCNCC2)cc1
Exercise: Form field 'greater pKi' accepts 1 or 2 ; which applies? // respond with label for picked entry
Solution: 1

* * *

test-system: Kallikrein-1 (Homo sapiens)
Sequence (P06870 whole entry): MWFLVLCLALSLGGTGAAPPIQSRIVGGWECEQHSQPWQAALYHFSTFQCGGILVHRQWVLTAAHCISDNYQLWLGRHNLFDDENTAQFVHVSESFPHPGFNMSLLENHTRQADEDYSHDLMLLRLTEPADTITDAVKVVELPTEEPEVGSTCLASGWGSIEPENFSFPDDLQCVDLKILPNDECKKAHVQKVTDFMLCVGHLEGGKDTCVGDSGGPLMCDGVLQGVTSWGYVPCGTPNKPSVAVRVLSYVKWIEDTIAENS
measure: IC50 (µM)
Record the value in µM, omitting the unit from your answer.

Exercise: Find the measured IC50: item NS(=O)(=O)c1ccccc1-c1ccc(C(=O)Nc2ccccc2C(=O)Nc2ccc(Br)cn2)cc1 , target or system Kallikrein-1 (Homo sapiens).
Solution: 2.1

* * *

test-system: Vitamin K-dependent protein C (Homo sapiens)
Sequence (P04070 43-197 limits assumed): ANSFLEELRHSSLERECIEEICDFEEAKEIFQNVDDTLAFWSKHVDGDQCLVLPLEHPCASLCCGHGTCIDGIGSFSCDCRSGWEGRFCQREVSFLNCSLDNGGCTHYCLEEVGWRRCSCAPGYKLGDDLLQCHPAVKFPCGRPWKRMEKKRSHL
Sequence (P04070 212-461 limits assumed): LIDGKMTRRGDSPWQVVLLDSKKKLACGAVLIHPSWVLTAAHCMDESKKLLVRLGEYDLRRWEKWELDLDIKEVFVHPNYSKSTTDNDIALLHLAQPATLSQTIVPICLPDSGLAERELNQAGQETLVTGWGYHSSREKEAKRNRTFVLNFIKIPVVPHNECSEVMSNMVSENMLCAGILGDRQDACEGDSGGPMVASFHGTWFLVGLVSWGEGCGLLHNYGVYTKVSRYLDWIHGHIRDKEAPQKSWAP
protocol-details: Inhibitory activity against activated protein C was determined
pIC50: −log10 of the molar value.
measure: pIC50

Exercise: Fill in the blank: the reported pIC50 of NS(=O)(=O)c1ccccc1-c1ccc(C(=O)Nc2ccccc2C(=O)Nc2ccc(Br)cn2)cc1 is ____.
Solution: < 5.00
